System: L1210 leukemia ip in BDF1 mice, survival T/C
testName: NCI In Vivo Anticancer Drug Screen. Data for tumor model L1210 Leukemia (intraperitoneal) in B6D2F1 (BDF1) mice
settings: endpoint: mean survival time; dose: 100.0 mg/kg/injection; schedule: Q04DX002 (ip); vehicle: saline; higher = longer survival
Toxic doses and inconclusive results are not listed.
propertyMeasured: T/C

For orientation, consider the following solved cases.
[[record]]
molecule = "O=C(COc1ccc(Cl)cc1Cl)NNc1ccc([N+](=O)[O-])cc1"
value = "100 % of control"

[[record]]
molecule = "CC(=O)OC1C(C[N+](=O)[O-])OC(n2cnc3c(NC(=O)c4ccccc4)ncnc32)C(OC(C)=O)C1OC(C)=O (stereo unspecified)"
value = "100 % of control"

[[record]]
molecule = "c1cc(CCCc2ccncc2)ccn1"
value = "95 % of control"

[[record]]
molecule = "Nc1nnc(N)c2ccccc12"
value = "100 % of control"

[[record]]
molecule = "CS/C(=C\\C(=O)c1ccccc1)C(=O)O"
value = "110 % of control"


INPUT: Quick one: give measured T/C for `c1ccc(CCSCCCSCCc2ccccn2)nc1`
OUTPUT: 98 % of control

INPUT: Quick one: give measured T/C for `C=CCP(C)(=O)CC=C`
OUTPUT: 102 % of control

INPUT: Quick one: give measured T/C for CCCCOCC(O)CNCCN (stereo unspecified)
OUTPUT: 108 % of control

INPUT: Quick one: give measured T/C for `Fc1ccc2[nH]c3cc4ccncc4cc3c2c1`
OUTPUT: 94 % of control

INPUT: Quick one: give measured T/C for CC(=O)OC1CC2(CO2)C2CC3OC3(C)C2C2OC(=O)C(C)C12 (stereo unspecified)
OUTPUT: 95 % of control

INPUT: Quick one: give measured T/C for O=C(OCc1ccccc1)C1CCCN1 (stereo unspecified)
OUTPUT: 100 % of control

Origin of the recorded values: PubChem BioAssay AID248
